- assay-details: Tissue distribution of THP, DHC and protopine in rat tissues after gastric gavage administration (HPLC-UV, non-compartmental analysis)
- Format: in vivo, Wistar male rats
- condition-set: male, Wistar, po, 6.45 mg/kg, rat heart, read-out: AUC0–24 h of THP
property-name: AUC(0-t) (ng·h/mL)
Enter your answer as a number in ng·h/mL; do not include the unit.

Query: Report measured AUC(0-t); entry is COc1cc2c(cc1OC)[C@@H]1Cc3ccc(OC)c(OC)c3CN1CC2 [THP, tetrahydropalmatine]
Reply: 1430

----------
- assay-details: Tissue distribution of THP, DHC and protopine in rat tissues after gastric gavage administration (HPLC-UV, non-compartmental analysis)
- Assay type: in vivo, Wistar male rats
- condition-set: male, Wistar, po, 6.45 mg/kg, rat liver, read-out: AUC0–24 h of THP
property-name: AUC(0-t) (ng·h/mL)
Enter your answer as a number in ng·h/mL; do not include the unit.

Query: Report measured AUC(0-t); entry is COc1cc2c(cc1OC)[C@@H]1Cc3ccc(OC)c(OC)c3CN1CC2 [THP, tetrahydropalmatine]
Reply: 5570

----------
- assay-details: Tissue distribution of THP, DHC and protopine in rat tissues after gastric gavage administration (HPLC-UV, non-compartmental analysis)
- Type: in vivo, Wistar male rats
- condition-set: male, Wistar, diencephalon, po, 26.1 mg/kg, rat diencephalons, read-out: AUC0–24 h of DHC
property-name: AUC(0-t) (ng·h/mL)
Enter your answer as a number in ng·h/mL; do not include the unit.

Query: Report measured AUC(0-t); entry is COc1cc2c(cc1OC)-c1c(C)c3ccc(OC)c(OC)c3c[n+]1CC2 [DHC, dehydrocorydaline]
Reply: 210

----------
- assay-details: Tissue distribution of THP, DHC and protopine in rat tissues after gastric gavage administration (HPLC-UV, non-compartmental analysis)
- Assay type: in vivo, Wistar male rats
- condition-set: male, Wistar, po, 6.45 mg/kg, rat lung, read-out: AUC0–24 h of THP
property-name: AUC(0-t) (ng·h/mL)
Enter your answer as a number in ng·h/mL; do not include the unit.

Query: Report measured AUC(0-t); entry is COc1cc2c(cc1OC)[C@@H]1Cc3ccc(OC)c(OC)c3CN1CC2 [THP, tetrahydropalmatine]
Reply: 5930

----------
- assay-details: Tissue distribution of THP, DHC and protopine in rat tissues after gastric gavage administration (HPLC-UV, non-compartmental analysis)
- Type: in vivo, Wistar male rats
- condition-set: male, Wistar, po, 6.45 mg/kg, rat hippocampus, read-out: AUC0–24 h of THP
property-name: AUC(0-t)
# number then unit; no other words

Query: Report measured AUC(0-t); entry is COc1cc2c(cc1OC)[C@@H]1Cc3ccc(OC)c(OC)c3CN1CC2 [THP, tetrahydropalmatine]
Reply: 1790 ng·h/mL

----------
- assay-details: Tissue distribution of THP, DHC and protopine in rat tissues after gastric gavage administration (HPLC-UV, non-compartmental analysis)
- Format: in vivo, Wistar male rats
- condition-set: male, Wistar, po, 6.45 mg/kg, rat spleen, read-out: Tmax of THP
property-name: Tmax (min)
Enter your answer as a number in min; do not include the unit.

Query: Report measured Tmax; entry is COc1cc2c(cc1OC)[C@@H]1Cc3ccc(OC)c(OC)c3CN1CC2 [THP, tetrahydropalmatine]
Reply: 13.8

----------
- assay-details: Tissue distribution of THP, DHC and protopine in rat tissues after gastric gavage administration (HPLC-UV, non-compartmental analysis)
- Assay type: in vivo, Wistar male rats
- condition-set: male, Wistar, po, 4.52 mg/kg, rat striatum, read-out: Cmax of protopine
property-name: Cmax (ng/mL)
Enter your answer as a number in ng/mL; do not include the unit.

Query: Report measured Cmax; entry is "CN1CCc2cc3c(cc2C(=O)Cc2ccc4c(c2C1)OCO4)OCO3"
Reply: 1950

----------
- assay-details: Tissue distribution of THP, DHC and protopine in rat tissues after gastric gavage administration (HPLC-UV, non-compartmental analysis)
- Type: in vivo, Wistar male rats
- condition-set: male, Wistar, po, 26.1 mg/kg, rat cerebrum, read-out: Tmax of DHC
property-name: Tmax (min)
Enter your answer as a number in min; do not include the unit.

Query: Report measured Tmax; entry is COc1cc2c(cc1OC)-c1c(C)c3ccc(OC)c(OC)c3c[n+]1CC2 [DHC, dehydrocorydaline]
Reply: 15

----------
- assay-details: Tissue distribution of THP, DHC and protopine in rat tissues after gastric gavage administration (HPLC-UV, non-compartmental analysis)
- Format: in vivo, Wistar male rats
- condition-set: male, Wistar, po, 26.1 mg/kg, rat lung, read-out: MRT of DHC
property-name: MRT (h)
Enter your answer as a number in h; do not include the unit.

Query: Report measured MRT; entry is COc1cc2c(cc1OC)-c1c(C)c3ccc(OC)c(OC)c3c[n+]1CC2 [DHC, dehydrocorydaline]
Reply: 3.98

----------
- assay-details: Tissue distribution of THP, DHC and protopine in rat tissues after gastric gavage administration (HPLC-UV, non-compartmental analysis)
- Type: in vivo, Wistar male rats
- condition-set: male, Wistar, po, 4.52 mg/kg, rat liver, read-out: AUC0–24 h of protopine
property-name: AUC(0-t)
# number then unit; no other words

Query: Report measured AUC(0-t); entry is "CN1CCc2cc3c(cc2C(=O)Cc2ccc4c(c2C1)OCO4)OCO3"
Reply: 27800 ng·h/mL

----------
- assay-details: Tissue distribution of THP, DHC and protopine in rat tissues after gastric gavage administration (HPLC-UV, non-compartmental analysis)
- Type: in vivo, Wistar male rats
- condition-set: male, Wistar, diencephalon, po, 4.52 mg/kg, rat diencephalons, read-out: MRT of protopine
property-name: MRT (h)
Enter your answer as a number in h; do not include the unit.

Query: Report measured MRT; entry is "CN1CCc2cc3c(cc2C(=O)Cc2ccc4c(c2C1)OCO4)OCO3"
Reply: 4.89

----------
- assay-details: Tissue distribution of THP, DHC and protopine in rat tissues after gastric gavage administration (HPLC-UV, non-compartmental analysis)
- Type: in vivo, Wistar male rats
- condition-set: male, Wistar, po, 4.52 mg/kg, rat kidney, read-out: AUC0–24 h of protopine
property-name: AUC(0-t) (ng·h/mL)
Enter your answer as a number in ng·h/mL; do not include the unit.

Query: Report measured AUC(0-t); entry is "CN1CCc2cc3c(cc2C(=O)Cc2ccc4c(c2C1)OCO4)OCO3"
Reply: 13400

----------
- assay-details: Tissue distribution of THP, DHC and protopine in rat tissues after gastric gavage administration (HPLC-UV, non-compartmental analysis)
- Format: in vivo, Wistar male rats
- condition-set: male, Wistar, po, 6.45 mg/kg, rat kidney, read-out: Cmax of THP
property-name: Cmax
# number then unit; no other words

Query: Report measured Cmax; entry is COc1cc2c(cc1OC)[C@@H]1Cc3ccc(OC)c(OC)c3CN1CC2 [THP, tetrahydropalmatine]
Reply: 2050 ng/mL

----------
- assay-details: Tissue distribution of THP, DHC and protopine in rat tissues after gastric gavage administration (HPLC-UV, non-compartmental analysis)
- Format: in vivo, Wistar male rats
- condition-set: male, Wistar, po, 26.1 mg/kg, rat striatum, read-out: Tmax of DHC
property-name: Tmax (min)
Enter your answer as a number in min; do not include the unit.

Query: Report measured Tmax; entry is COc1cc2c(cc1OC)-c1c(C)c3ccc(OC)c(OC)c3c[n+]1CC2 [DHC, dehydrocorydaline]
Reply: 15

----------
- assay-details: Tissue distribution of THP, DHC and protopine in rat tissues after gastric gavage administration (HPLC-UV, non-compartmental analysis)
- Format: in vivo, Wistar male rats
- condition-set: male, Wistar, po, 4.52 mg/kg, rat kidney, read-out: Tmax of protopine
property-name: Tmax (h)
Enter your answer as a number in h; do not include the unit.

Query: Report measured Tmax; entry is "CN1CCc2cc3c(cc2C(=O)Cc2ccc4c(c2C1)OCO4)OCO3"
Reply: 5.13

----------
- assay-details: Tissue distribution of THP, DHC and protopine in rat tissues after gastric gavage administration (HPLC-UV, non-compartmental analysis)
- Assay type: in vivo, Wistar male rats
- condition-set: male, Wistar, po, 4.52 mg/kg, rat heart, read-out: Tmax of protopine
property-name: Tmax
# number then unit; no other words

Query: Report measured Tmax; entry is CN1CCc2cc3c(cc2C(=O)Cc2ccc4c(c2C1)OCO4)OCO3 [protopine]
Reply: 5.28 h

----------
- assay-details: Tissue distribution of THP, DHC and protopine in rat tissues after gastric gavage administration (HPLC-UV, non-compartmental analysis)
- Assay type: in vivo, Wistar male rats
- condition-set: male, Wistar, po, 6.45 mg/kg, rat striatum, read-out: AUC0–24 h of THP
property-name: AUC(0-t) (ng·h/mL)
Enter your answer as a number in ng·h/mL; do not include the unit.

Query: Report measured AUC(0-t); entry is COc1cc2c(cc1OC)[C@@H]1Cc3ccc(OC)c(OC)c3CN1CC2 [THP, tetrahydropalmatine]
Reply: 2470
